- System: Integrin beta-2 (Homo sapiens) + Integrin alpha-M (Homo sapiens) (UniProt P05107+P11215)
- Sequence (P05107 whole entry, looked up, other chains not shown): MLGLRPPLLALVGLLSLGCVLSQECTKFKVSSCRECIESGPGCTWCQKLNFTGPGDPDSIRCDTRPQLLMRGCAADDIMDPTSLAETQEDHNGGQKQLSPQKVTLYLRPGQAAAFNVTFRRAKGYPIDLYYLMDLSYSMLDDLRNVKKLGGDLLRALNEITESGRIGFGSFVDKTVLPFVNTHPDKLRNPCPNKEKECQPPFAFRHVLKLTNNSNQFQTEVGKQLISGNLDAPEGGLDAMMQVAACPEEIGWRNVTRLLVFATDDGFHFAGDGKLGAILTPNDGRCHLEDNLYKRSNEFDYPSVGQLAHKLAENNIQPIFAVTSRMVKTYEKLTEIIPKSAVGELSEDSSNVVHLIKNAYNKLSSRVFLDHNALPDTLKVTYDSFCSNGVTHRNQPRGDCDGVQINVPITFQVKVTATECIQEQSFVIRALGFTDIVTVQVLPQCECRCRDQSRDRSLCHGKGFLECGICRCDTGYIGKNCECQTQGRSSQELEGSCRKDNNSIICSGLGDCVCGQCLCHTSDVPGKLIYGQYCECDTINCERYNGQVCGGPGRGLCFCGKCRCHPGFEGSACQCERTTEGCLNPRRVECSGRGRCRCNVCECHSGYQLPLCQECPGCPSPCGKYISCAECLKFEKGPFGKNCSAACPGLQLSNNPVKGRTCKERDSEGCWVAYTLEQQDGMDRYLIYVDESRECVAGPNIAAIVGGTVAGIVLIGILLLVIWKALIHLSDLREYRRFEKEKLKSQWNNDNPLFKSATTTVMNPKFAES
- Experiment: enhancers of CD11b/CD18 adhesion to fibrinogen, primary screen, K562 cells, luminescence (AID 1499)
- Measurement Parameters: ATPlite luminescence, at 10 µM, active compounds read high
Screen size: about 93,000 compounds; about 65 (0.07%) were called active. Many of the other results were omitted from the sample, so actives are more common in it than they were.
Field: activation. Provide a value for each of the molecules that follow.
The answer is to be given in %; state only the numeric part.

q: Given the molecule `CC(=O)c1ccc(NC(=O)Nc2ccc([N+](=O)[O-])cc2C)cc1` , what is its reported activation?
a: -2.3

q: Given the molecule `COc1ccc(NS(=O)(=O)c2ccc(NC(=O)c3ccc(N(C)S(C)(=O)=O)cc3)cc2)cc1` , what is its reported activation?
a: -3.8

q: Given the molecule `COc1ccc(NS(=O)(=O)c2ccc(NC(=S)NC(=O)/C=C/c3ccc(C)cc3)cc2)nn1` , what is its reported activation?
a: 3.8

q: Given the molecule `CC(C)[C@H](NC(=O)c1ccc(F)cc1)C(=O)OCC(=O)NC(=O)c1cccn1C` , what is its reported activation?
a: 25.8

q: Given the molecule Cc1cc(C)c(NC(=S)N2CCCC2C(=O)O)c(C)c1 (stereo unspecified) , what is its reported activation?
a: -3.4

q: Given the molecule `COc1cc(Cl)c(C)cc1NC(=O)[C@@H]1CCCN1C(=O)c1cccs1` , what is its reported activation?
a: -2.3

q: Given the molecule `O=C(NNC(=S)Nc1ccc(Br)cc1Cl)c1ccco1` , what is its reported activation?
a: -7.7

q: Given the molecule `Cc1ccccc1NC(=O)CSC1=NCCN1` , what is its reported activation?
a: 3.2

q: Given the molecule `O=C(COC(=O)Cn1cnc2ccccc21)Nc1cccc2c1C(=O)c1ccccc1C2=O` , what is its reported activation?
a: 7.9

q: Given the molecule `CCOc1ccc(/C=N/OCC(=O)NCc2cccs2)cc1` , what is its reported activation?
a: -0.5

q: Given the molecule `CN(C)CCCNC(=S)NCc1ccc(Cl)cc1` , what is its reported activation?
a: 2.8

---

Field: activation. Provide a value for each of the molecules that follow.
- System: Integrin beta-2 (Homo sapiens) + Integrin alpha-M (Homo sapiens) (UniProt P05107+P11215)
- Experiment: enhancers of CD11b/CD18 adhesion to fibrinogen, primary screen, K562 cells, luminescence (AID 1499)
- Measurement Parameters: ATPlite luminescence, at 10 µM, active compounds read high
Screen size: about 93,000 compounds; about 65 (0.07%) were called active. The sample holds actives, similar compounds and a random draw of the others, so the mix is not that of the screen.
The answer is to be given in %; state only the numeric part.

q: Given the molecule `O=C(CSc1nc2ccccc2[nH]1)Nc1nc(-c2ccccc2)c(-c2ccccc2)o1` , what is its reported activation?
a: -6.7

q: Given the molecule `CCn1c2ccccc2c2cc(NC(=O)COC(=O)c3ccccc3Br)ccc21` , what is its reported activation?
a: 0.6

q: Given the molecule `Cc1ccc(-n2c(C)cc(C(=O)CSc3nnc4ccccn34)c2C)cc1` , what is its reported activation?
a: -2.4

q: Given the molecule Cc1c(Br)c([N+](=O)[O-])nn1CC(=O)Nc1sc2c(c1C(=O)OC(C)C)CCC(C)C2 (stereo not drawn) , what is its reported activation?
a: 10.3

q: Given the molecule `Cc1cccc(NC(=S)Nc2ccc3cn[nH]c3c2)c1` , what is its reported activation?
a: 0.1

q: Given the molecule `COC(=O)Cc1ccc(NC(=S)NCc2ccccc2)cc1` , what is its reported activation?
a: 1.6

q: Given the molecule `O=C(Nc1cc(C(F)(F)F)ccc1Cl)C(=O)N1CCCCC1` , what is its reported activation?
a: 10.3

q: Given the molecule `CN(Cc1cccs1)C(=O)Cc1c[nH]c2ccccc12` , what is its reported activation?
a: -1.9

q: Given the molecule `Cc1cc(C)c[n+](-c2nc3ccccc3nc2[N-]S(=O)(=O)c2cccs2)c1` , what is its reported activation?
a: 2.1

q: Given the molecule `COc1ccc2oc(-c3cccc(NC(=O)CSc4ccc(Cl)cc4)c3)nc2c1` , what is its reported activation?
a: 13.1

q: Given the molecule `C/C(=N\NC(=O)CCn1nc(C)cc1C)C(C)(C)C` , what is its reported activation?
a: 2.8

q: Given the molecule `CCOC(=O)NC(=O)CSc1nnc(SCCC(=O)O)s1` , what is its reported activation?
a: -3.3

q: Given the molecule `Cc1ccc(-c2nnc(SCC(=O)N/N=C/c3cccs3)n2-c2ccc(C)cc2)cc1` , what is its reported activation?
a: 9

q: Given the molecule `O=C(Oc1ccc([N+](=O)[O-])cc1)c1ccc(Cl)c(S(=O)(=O)N2CCCCC2)c1` , what is its reported activation?
a: -4.7

q: Given the molecule CC(C)N1C(=O)N(c2ccccc2)C(C)(O)CC1(C)C (stereo not drawn) , what is its reported activation?
a: 3.2

q: Given the molecule `CC(C)CNC(=O)COC(=O)c1ccccc1OCC(=O)Nc1ccc(Br)cc1` , what is its reported activation?
a: 1

q: Given the molecule `CC(C)Nc1nnc(SCC(=O)/C=C2\N(C)c3ccccc3C2(C)C)s1` , what is its reported activation?
a: 0

q: Given the molecule `CCOC(=O)c1c(NC(=O)C2CCN(S(=O)(=O)c3ccc(Cl)cc3)CC2)sc2c1CCCC2` , what is its reported activation?
a: 15.1

q: Given the molecule Cc1ccc(NC(=O)CC2C(=O)N(Cc3ccccc3)C(=S)N2NC(=O)c2cccc(F)c2)c(C)c1 (stereo not drawn) , what is its reported activation?
a: 2.6

q: Given the molecule `COc1cc(/C=N/NC(=O)CCc2n[nH]c(=O)[nH]c2=O)ccc1O` , what is its reported activation?
a: 15.1

q: Given the molecule `Cc1cccc2cc(CN(Cc3cccs3)C(=S)NCc3ccco3)c(=O)[nH]c12` , what is its reported activation?
a: 3.8

q: Given the molecule `Cc1cc(C)cc(C(=O)N2CCN=C2SCc2ccc([N+](=O)[O-])cc2)c1` , what is its reported activation?
a: 0.8

q: Given the molecule `COc1ccc(OC)c(/C=C/C(=O)OCC(=O)Nc2ccc3c(c2)OCCO3)c1` , what is its reported activation?
a: -3.7

q: Given the molecule `Cc1cc(C(=O)CSc2nc(N)cc(=O)[nH]2)c(C)n1-c1cccc(F)c1` , what is its reported activation?
a: 16.6

q: Given the molecule CCN(C(=O)COC(=O)c1c(NC(C)=O)sc(C)c1C)C1CCS(=O)(=O)C1 (stereo not drawn) , what is its reported activation?
a: 0.3

q: Given the molecule Cc1c(Cl)cccc1NC(=O)CC1SC(=NCC2CCCO2)NC1=O (stereo not drawn) , what is its reported activation?
a: 2.9

q: Given the molecule `CC(=O)Nc1ccc(NC(=S)NC(=O)c2ccc([N+](=O)[O-])c(C)c2)cc1` , what is its reported activation?
a: 0.9

q: Given the molecule `Cc1ccc(NC(=O)CN(C)Cc2ccc(F)cc2)c([N+](=O)[O-])c1` , what is its reported activation?
a: -1

q: Given the molecule `COc1ccc2c(CN3CCN(S(=O)(=O)c4cccs4)CC3)cc(=O)oc2c1` , what is its reported activation?
a: 1.6

q: Given the molecule `COC(=O)N/N=C/c1ccc(-c2ccc(Cl)c(Cl)c2)o1` , what is its reported activation?
a: -1.3

q: Given the molecule `OCC(CO)(CO)NCc1ccc(-c2ccccc2)cc1` , what is its reported activation?
a: 4.4

q: Given the molecule `CCOC(=O)C1CCN(c2ccc(C(=O)O)cc2[N+](=O)[O-])CC1` , what is its reported activation?
a: -3.3

q: Given the molecule `Fc1ccccc1CNC(=S)Nc1ccc(Cl)cc1` , what is its reported activation?
a: -7.2

q: Given the molecule `Oc1c(Br)cccc1/C=N/Nc1c(F)c(F)c(F)c(F)c1F` , what is its reported activation?
a: -10.4

q: Given the molecule `Cc1ccc(OCC(=O)Nc2ccccc2Sc2ccc(Cl)cc2)c([N+](=O)[O-])n1` , what is its reported activation?
a: -1

q: Given the molecule `Cc1ccc(NC(=O)NC(=O)CSc2nnc(-c3ccc(OC(F)F)cc3)n2N)c(C)c1` , what is its reported activation?
a: -3.1

q: Given the molecule CC(Sc1nc2cc(Cl)ccc2s1)C(=O)Nc1ccc2c(c1)OCO2 (stereo not drawn) , what is its reported activation?
a: 0.6

q: Given the molecule `Cc1ccc2[nH]cc(CCNC(=O)c3ccc([N+](=O)[O-])cc3)c2c1` , what is its reported activation?
a: -1.3

q: Given the molecule `CCOc1ncccc1C(=O)N(C)CC(=O)Nc1ccc(F)cc1` , what is its reported activation?
a: -3.5

q: Given the molecule `Cc1ccc(-c2nnc(-c3ccc(NC(=O)c4cccs4)cc3)o2)cc1` , what is its reported activation?
a: 161

q: Given the molecule COc1cccc(N(C(=O)C2COc3ccccc3O2)C(C(=O)NC2CCCCC2)c2ccc(O)cc2)c1 (stereo not drawn) , what is its reported activation?
a: -0.8

q: Given the molecule `Cc1nc(-c2ccc(NC(=O)c3cccs3)cc2)cs1` , what is its reported activation?
a: -4.6

q: Given the molecule C/C(CC1CC(C)(C)OC1=O)=N/Nc1nc(-c2ccccc2)cs1 (stereo not drawn) , what is its reported activation?
a: -0.2
